- Test system: BT-549
- assay_comment: NCI tumour cell line growth inhibition, 48 h
Active and inactive are the calls of the source. No stated cut-off is given here; in the data, active = GI50 up to about 1.1 µM and inactive = higher.
Valid outcomes are listed here; reply with one: active, inactive

Illustrative cases are given below, each with its answer.
- molecule: "COCOC1/C=C/CCCCC(=O)C(C)C#CC1 (stereo not given)"
  group: "inactive"
- molecule: "O=C(O)CSCC(=O)c1ccccc1"
  group: "inactive"
- molecule: "CCc1c2c(nc3ccc(O)cc13)-c1cc3c(c(=O)n1C2)COC(=O)[C@]3(O)CC [7-ETHYL-10-HYDROXYCAMPTOTHECIN]"
  group: "active"
- molecule: "O=C(O[C@H](/C=C/c1ccccc1)P1(=O)N(Cc2ccccc2)[C@@H]2CCCC[C@H]2N1Cc1ccccc1)c1ccccc1"
  group: "inactive"
- molecule: "O=c1ssc2c1Nc1c(ssc1=O)S2"
  group: "inactive"
- molecule: "Cc1ccsc1/C=N/Nc1cc(C)c2cccc(C)c2n1"
  group: "inactive"
- molecule: "COc1cc2c3c(c1OC)-c1cc4c(cc1CC3(C#N)N(C(=O)c1ccccc1)CC2)OCO4 (stereo not given)"
  group: "inactive"
- molecule: "c1ccc(CCNCc2ccco2)nc1"
  group: "inactive"
- molecule: "O=C1c2ccsc2-c2cccc3cccc1c23.O=C1c2sccc2-c2cccc3cccc1c23"
  group: "inactive"

Now look at this one.
## Task Record lookup: outcome of this test for CC(=O)N1c2ccccc2C(C)(C)OC1C(Cl)(Cl)Cl (stereo not given) ?
## Result inactive

The reported measurements were obtained from ChEMBL document CHEMBL1201862.
